Listed here are molecules together with their documented Percent Effect.
# studySystem: Protein translocase subunit SecA (Escherichia coli (strain K12)) (UniProt P10408)
# Sequence (P10408 whole entry): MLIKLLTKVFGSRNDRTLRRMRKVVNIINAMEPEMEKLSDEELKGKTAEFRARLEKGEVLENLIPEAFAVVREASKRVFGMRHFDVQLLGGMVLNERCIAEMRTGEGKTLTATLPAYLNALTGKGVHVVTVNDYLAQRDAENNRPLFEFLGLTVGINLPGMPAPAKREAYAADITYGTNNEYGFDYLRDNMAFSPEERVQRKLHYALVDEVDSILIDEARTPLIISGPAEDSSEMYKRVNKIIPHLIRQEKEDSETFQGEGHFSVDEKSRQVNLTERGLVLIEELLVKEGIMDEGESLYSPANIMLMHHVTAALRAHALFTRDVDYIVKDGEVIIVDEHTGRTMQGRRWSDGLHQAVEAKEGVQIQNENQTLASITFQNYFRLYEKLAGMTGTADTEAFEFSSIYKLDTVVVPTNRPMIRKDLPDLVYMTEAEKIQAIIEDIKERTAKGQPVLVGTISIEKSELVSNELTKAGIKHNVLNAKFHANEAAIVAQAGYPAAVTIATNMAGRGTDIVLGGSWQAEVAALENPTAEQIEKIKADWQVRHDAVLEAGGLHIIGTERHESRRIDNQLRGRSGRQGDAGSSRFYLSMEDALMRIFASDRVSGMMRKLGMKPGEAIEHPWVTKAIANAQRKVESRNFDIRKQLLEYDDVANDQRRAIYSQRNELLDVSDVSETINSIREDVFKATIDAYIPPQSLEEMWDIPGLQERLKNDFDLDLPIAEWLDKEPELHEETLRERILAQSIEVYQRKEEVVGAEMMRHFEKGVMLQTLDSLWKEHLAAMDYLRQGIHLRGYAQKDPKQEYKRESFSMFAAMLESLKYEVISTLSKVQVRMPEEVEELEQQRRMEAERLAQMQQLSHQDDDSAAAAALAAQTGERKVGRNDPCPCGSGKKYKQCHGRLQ
# protocolDescription: Assay to Identify E. coli SecA ATPase Inhibitors
# Type: functional
# Set-up: scale not given: direction of the effect not stated beside the values
# testContext: 30 µM
Measured potencies and affinities stand elsewhere.
Quick note: give the figure in %, leave out the unit.

Cc1c(F)cccc1CN1CCn2nc(CNC(=O)N(C)C)cc2C1 ... -5.26

Percent Effect of `Cc1cc(N2CCC(CC(N)=O)CC2)nc(-c2ccncc2)n1` on Protein translocase subunit SecA (Escherichia coli (strain K12)) (UniProt P10408)?
-7.29

Look up Percent Effect with Protein translocase subunit SecA (Escherichia coli (strain K12)) (UniProt P10408) for this molecule: CC(C)NC(=O)C1CN(C(=O)Nc2ccccc2)CC12CCOCC2 (configuration not stated)
-8.24

Could you share what Percent Effect was measured for N#CCCN(C(=O)CN1CCCC1C1CCCCC1)c1ccccc1 (configuration not stated) , tested on Protein translocase subunit SecA (Escherichia coli (strain K12)) (UniProt P10408)?
-2.43

Quick check: Percent Effect on Protein translocase subunit SecA (Escherichia coli (strain K12)) (UniProt P10408), item `CCn1cc(NC(=O)NCc2ccc3c(c2)OCCO3)cn1` ?
-3.41

Notebook: pull reported Percent Effect for Protein translocase subunit SecA (Escherichia coli (strain K12)) (UniProt P10408), entry `Cc1cc(C[C@@H]2COC[C@@H]2NC(=O)CN2CCCN(C)CC2)on1`
-3.19
